Assayed Target: T1, human IL-12 (human, UniProt P29460 23-328; P29459 23-219)
T1 construct: Recombinant (Peprotech); FLAG-tagged IL-12 in the flow cytometry assays, biotinylated in the IL-12Rβ2 assay; also called hIL-12
T1 sequence 1: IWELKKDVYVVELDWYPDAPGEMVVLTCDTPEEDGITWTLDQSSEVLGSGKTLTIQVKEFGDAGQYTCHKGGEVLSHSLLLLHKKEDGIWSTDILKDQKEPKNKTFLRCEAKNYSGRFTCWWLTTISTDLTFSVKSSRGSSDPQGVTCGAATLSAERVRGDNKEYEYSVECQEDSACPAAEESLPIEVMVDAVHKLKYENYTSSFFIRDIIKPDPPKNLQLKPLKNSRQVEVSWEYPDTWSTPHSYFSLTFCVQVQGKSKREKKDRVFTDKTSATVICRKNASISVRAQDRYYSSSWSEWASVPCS
T1 sequence 2: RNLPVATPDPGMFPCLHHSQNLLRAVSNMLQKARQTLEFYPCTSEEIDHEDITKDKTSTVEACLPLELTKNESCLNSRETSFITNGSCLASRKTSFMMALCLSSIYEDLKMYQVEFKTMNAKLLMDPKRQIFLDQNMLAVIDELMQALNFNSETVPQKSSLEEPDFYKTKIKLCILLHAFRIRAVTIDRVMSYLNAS
Procedure Text: ELISA, coated IL-12
Readout Name: binding result

Antibody 18 (antibody, human IgG1, kappa, V domains shown) VH: EVQLQQSGADLVRSGASIKLSCTASGFNIKDYYMHWVKQRPEQGLEWIGWIDPENGDTEYAPKFQGKATMTADTSSNTAYLQLSSLTSEDTAVYYCNAPKELRYFDVWGAGTTVTVSS VL: DIVLTQSPATLSVTPGDSVSLSCRASQSISINLHWYQQKSHESPRLLIKFASQSISGIPSRFSGYGSGTDFTLSINSVETEDFGRYFCQQSNSWPLTFGAGTKLELKR = binds
Antibody 20 (antibody, human IgG1, kappa, V domains shown) VH: EVQLQQSGADLVRSGASIKLSCTASGFNIKDYYMHWVKQRPEQGLEWIGWIDPENGDTEYAPKFQGKATMTADTSSNTAYLQLSSLTSEDTAVYYCNATKELRYFDVWGAGTTVTVSS VL: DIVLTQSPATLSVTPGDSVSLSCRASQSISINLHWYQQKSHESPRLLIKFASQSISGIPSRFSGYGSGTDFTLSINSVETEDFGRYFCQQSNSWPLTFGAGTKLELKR = binds
